This collection of values is drawn from patent US20250313632A1.

Property: inhibition ratio; scope: individual binders
experimental-system: human B7-H3 protein (human) (UniProt Q5ZPR3)
protocol-summary: Octet (BLI) epitope binning on captured human B7-H3; competitor CA84D
Entry rule: numbers only, all in %.

Answered examples (4):
[[record]]
binder = "MGA017 (antibody, from a related filing, V domains shown) VH: EVQLVESGGGLVKPGGSLRLSCAASGFTFSSYGMSWVRQAPGKGLEWVATINSGGSNTYYPDSLKGRFTISRDNAKNSLYLQMNSLRAEDTAVYYCARHDGGAMDYWGQGTTVTVSS VL: DIQMTQSPSSLSASVGDRVTITCRASESIYSYLAWYQQKPGKAPKLLVYNTKTLPEGVPSRFSGSGSGTDFTLTISSLQPEDFATYYCQHHYGTPPWTFGQGTRLEIK"
reported_endpoint = "inhibition ratio"
value = 3.65

[[record]]
binder = "227E12D1 (antibody, V domains shown) VH: EVKLVESGGGLVKPGGSLKLSCAASGFTFSSYGMSWVRQTPEKRLEWVATISGGGTYTYYPDSVKGRFTISRDNAKNNLYLQMSSLRSDDTALYYCARHEGLVMDYWGQGTSVTVSS VL: DIQMTQSPASLSASVGETVTITCRASENIYSYLAWYQQKQGKSPQLVVYNAKTLAEGVPSRFSGSGSGTQFSLKINSLQPEDFGTYYCQHHYGPPPYTFGGGTKLEIK"
reported_endpoint = "inhibition ratio"
value = -5.46

[[record]]
binder = "97E6B2 (antibody, V domains shown) VH: QVQLQQPGAELVKPGASVKMSCKASGYTFTSYWITWVKQRPGQGLEWIGDIYPGSNNTYYNEKFKSKATLTVDTSSSTAYIQLSSLTSEDSAVYYCARLIMSLFDYSGQGTTLTVSS VL: ENVLTQSPANMSASPGEKVTMTCSVSSSVSYIHWYQQKSSTSPTLWIYDTSKLASGVPGRFSGSGSGNSYALTISSMEAEDVATYYCFQGSAYPLTFGAGTKLELK"
reported_endpoint = "inhibition ratio"
value = -3.99

[[record]]
binder = "AHP06345 (antibody, V domains shown) VH: QVQLVQSGAEVKKPGESLRISCKGSGYSFTSYWISWVRQMPGKGLEWMGRIDPSDSYTNYSPSFQGHVTISADKSISTAYLQWSSLKASDTAMYYCARHTGYYGSGIGMDVWGQGTLVTVSS VL: HVILTQPPSVSAAPGQKVTISCSGSSSNIGNNYVSWYRQLPGTAPKLLIYDNNQRPSGIPDRFSGSKSGTSATLGITGLQTGDEADYYCATWDSSLGVVVFGGRTKLTVL"
reported_endpoint = "inhibition ratio"
value = -3.77


Data request: I'd like to know its inhibition ratio. The binder in question is 216E7A9 (antibody, V domains shown) VH: DVQLVESGGGLVQPGGSRKLSCAASGFTFSSFGMHWVRQAPEKGLEWVAYISSGSSTIYYADTVRGRFTISRDNPKNTLFLQMTSLRSEDTAMYYCARGGDYYYALDYWGQGTSVTVSS VL: DIQMTQSPASLSVSVGETVTITCRASENIHSNLEWYQQKQGKSPQLLVYAATNLADGVPSRFSGSGSGTQYSLKINSLQSEDFGSYYCQHFWGTPFTFGSGTKLEIK
Data returned: 5.28

Data request: Could you do the same for AHP06358 (antibody, V domains shown) VH: EVQLVQSGAEVKKPGASVKVSCKASGYTFTSYGISWVRQAPGQGLEWMGWISAYNGNTNYAQKLQGRVTMTTDTSTSTAYMELRSLRSDDTAVYYCARDSPLQIAVAGYYYGMDVWGQGTTVTVSS VL: NFMLTQPHSVSESPGKTVTISCTRSSGSIVSGYVQWYQQRPGSAPSTVIYEHNQRPSGVPDRFSGSIDSSSNSASLTISGLRTEDEADYYCQSYDSRNMIFGGGTKLTVL , please?
Data returned: -13.6
